Hi there, I'd appreciate the recorded EC50 for every entry that follows.
Tested on: doxorubicin-resistant P388
Experiment: XTT proliferation assay, P388ADR
Type: cell-based, murine
Conditions: Mus musculus

Answered cases to consult:
CC(=O)O[C@H]1C(=O)[C@@]2(C)[C@H]([C@H](OC(=O)c3ccccc3)[C@]3(O)C[C@H](OC(=O)[C@H](O)[C@@H](NC(=O)c4ccccc4)c4ccccc4)C(C)=C1C3(C)C)[C@]1(OC(C)=O)CO[C@@H]1C[C@@H]2O [Paclitaxel, paclitaxel]: > 3.16 µg/mL
O=C1c2c(O)ccc(O)c2C(=O)c2c(NCCNCCO)ccc(NCCNCCO)c21 [Mitoxantrone, mitoxantrone]: 0.608 µg/mL
CC[C@]1(O)C[C@H]2CN(CCc3c([nH]c4ccccc34)[C@@](C(=O)OC)(c3cc4c(cc3OC)N(C=O)[C@H]3[C@@](O)(C(=O)OC)[C@H](OC(C)=O)[C@]5(CC)C=CCN6CC[C@]43[C@@H]65)C2)C1 [Vincristine, vincristine]: 0.93 µg/mL

Please state EC50 for every molecule in the list that follows.
1. O=C(Nc1ccc2ncccc2c1)C(=S)c1cn(Cc2ccc(Cl)cc2)c2ccccc12 [Compound 11]
2. COc1cccc2c1C(=O)c1c(O)c3c(c(O)c1C2=O)C[C@@](O)(C(=O)CO)C[C@@H]3O[C@H]1C[C@H](N)[C@H](O)[C@H](C)O1 [Doxorubicin, doxorubicin]
3. COc1cc([C@@H]2c3cc4c(cc3[C@@H](O[C@@H]3O[C@@H]5CO[C@@H](C)O[C@H]5[C@H](O)[C@H]3O)[C@H]3COC(=O)[C@H]23)OCO4)cc(OC)c1O [Etoposide, etoposide]

Ans.
1. 0.051 µg/mL
2. > 3.16 µg/mL
3. > 3.16 µg/mL
